Values were extracted from patent US20130011375A1.

Target: T1, HCV NS3 1073-1081, alanine analogue 1073-Ala (position 1) peptide on HLA-A*02:01 (human)
T1 peptide: AINGVCWTV
Assay: cytokine release
Measurement Label: binding result

{"columns": ["Binder", "Reported"],
 "data": [
  ["I4F8 (TCR, V domains shown) Valpha: AQSVTQPDARVTVSEGASLQLRCKYSYFGTPYLFWYVQYPRQGLQLLLKYYPGDPVVQGVNGFEAEFSKSNSSFHLRKASVHWSDWAVYFCAVSNMGYKLTFGTGTSLLVDP Vbeta: DPKIIQKPKYLVAVTGSEKILICEQYLGHNAMYWYRQSAKKPLEFMFSYSYQKLMDNQTASSRFQPQSSKKNHLDLQITALKPDDSATYFCASSQEMGGALEQYFGPGTRLTVL", "recognises"],
  ["I4G7 alpha chain with I4G7 beta chain1 (TCR, V domains shown) Valpha: AQSVTQPDARVTVSEGASLQLRCKYSYFGTPYRIEFSGREFALLFWYVQYPRQGLQLLLKYYPGDPVVQGVNGFEAEFSKSNSSFHLRKASVHWSDWAVYFCAVSRDTNTGKLTFGDGTVLTVKP Vbeta: EAAVTQSPRNKVAVTGGKVTLSCNQTNNHNNMGELNLAAANSPLYWYRQDTGHGLRLIHYSYVADSTEKGDIPDGYKASRPSQENFSLILELASLSQTAVYFCASSGGLGGHTLYFGAGTRLSVL", "recognises"],
  ["I8A4 (TCR, V domains shown) Valpha: LAKTTQPPSMEAYEGQEVNVSCSHTNIATSEYIYWYRQVPHQGPQFIIQGYKDYVVNEVASLFISADRKLSTLSLPWVSLRDAAVYYCIVTDMETGGYKVVFGSGTRLLVSP Vbeta: EAAVTQSPRNKVAVTGGKVTLSCNQTNNHNNMYWYRQDTGHGLRLIHYSYGAGSTEKGDIPDGYKASRPSQENFSLILELATPSQTSVYFCASASTGASSYEQYFGPGTRLTVL", "recognises"],
  ["I4G7 alpha chain with I4G7 beta chain2 (TCR, V domains shown) Valpha: AQSVTQPDARVTVSEGASLQLRCKYSYFGTPYLFWYVQYPRQGLQLLLKYYPGDPVVQGVNGFEAEFSKSNSSFHLRKASVHWSDWAVYFCAVSRDTNTGKLTFGDGTVLTVKP Vbeta: EAAVTQSPRNKVTVTGGNVTLSCRQTNSHNYMYWYRQDTGHGLRLIHYSYGAGNLRIGDVPDGYKATRTTQEDFFLLLELASPSQTSLYFCASSDYRDSGNTLYFGEGSRLIVV", "recognises"]
]}

Give binding result for the following binder: I8H4 (TCR, V domains shown) Valpha: AQKVTQTQTSISVVEKTTVTMDCVYETRDSSYFLFWYKQTASGEIVFLIRQDSYKKENATVGHYSLNFQKPKSSIGLIITATQIEDSAVYFCAMREITGNTGKLIFGLGTTLQVQP Vbeta: EAAVTQSPRNKVTVTGGNVTLSCRQTNSHNYMYWYRQDTGHGLRLIHYSYGAGNLRIGDVPDGYKATRTTQEDFFLLLELASPSQTSLYFCASSDALGGEDAEQFFGPGTRLTVL
recognises
